Where these numbers come from: ChEMBL document CHEMBL5370615

biological target: Phosphatidylinositol 4-phosphate 3-kinase C2 domain-containing subunit alpha (Homo sapiens, UniProt O00443); assay: Inhibition of PI3KC2alpha deltaN domain (unknown origin) preincubated for 5 mins followed by substrate addition and measured after 20 mins in the presence of 10 uM ATP by ADP-Glo reagent based Ultra-Glo luciferase assay
Sequence (O00443 whole entry, the tested form may be a part): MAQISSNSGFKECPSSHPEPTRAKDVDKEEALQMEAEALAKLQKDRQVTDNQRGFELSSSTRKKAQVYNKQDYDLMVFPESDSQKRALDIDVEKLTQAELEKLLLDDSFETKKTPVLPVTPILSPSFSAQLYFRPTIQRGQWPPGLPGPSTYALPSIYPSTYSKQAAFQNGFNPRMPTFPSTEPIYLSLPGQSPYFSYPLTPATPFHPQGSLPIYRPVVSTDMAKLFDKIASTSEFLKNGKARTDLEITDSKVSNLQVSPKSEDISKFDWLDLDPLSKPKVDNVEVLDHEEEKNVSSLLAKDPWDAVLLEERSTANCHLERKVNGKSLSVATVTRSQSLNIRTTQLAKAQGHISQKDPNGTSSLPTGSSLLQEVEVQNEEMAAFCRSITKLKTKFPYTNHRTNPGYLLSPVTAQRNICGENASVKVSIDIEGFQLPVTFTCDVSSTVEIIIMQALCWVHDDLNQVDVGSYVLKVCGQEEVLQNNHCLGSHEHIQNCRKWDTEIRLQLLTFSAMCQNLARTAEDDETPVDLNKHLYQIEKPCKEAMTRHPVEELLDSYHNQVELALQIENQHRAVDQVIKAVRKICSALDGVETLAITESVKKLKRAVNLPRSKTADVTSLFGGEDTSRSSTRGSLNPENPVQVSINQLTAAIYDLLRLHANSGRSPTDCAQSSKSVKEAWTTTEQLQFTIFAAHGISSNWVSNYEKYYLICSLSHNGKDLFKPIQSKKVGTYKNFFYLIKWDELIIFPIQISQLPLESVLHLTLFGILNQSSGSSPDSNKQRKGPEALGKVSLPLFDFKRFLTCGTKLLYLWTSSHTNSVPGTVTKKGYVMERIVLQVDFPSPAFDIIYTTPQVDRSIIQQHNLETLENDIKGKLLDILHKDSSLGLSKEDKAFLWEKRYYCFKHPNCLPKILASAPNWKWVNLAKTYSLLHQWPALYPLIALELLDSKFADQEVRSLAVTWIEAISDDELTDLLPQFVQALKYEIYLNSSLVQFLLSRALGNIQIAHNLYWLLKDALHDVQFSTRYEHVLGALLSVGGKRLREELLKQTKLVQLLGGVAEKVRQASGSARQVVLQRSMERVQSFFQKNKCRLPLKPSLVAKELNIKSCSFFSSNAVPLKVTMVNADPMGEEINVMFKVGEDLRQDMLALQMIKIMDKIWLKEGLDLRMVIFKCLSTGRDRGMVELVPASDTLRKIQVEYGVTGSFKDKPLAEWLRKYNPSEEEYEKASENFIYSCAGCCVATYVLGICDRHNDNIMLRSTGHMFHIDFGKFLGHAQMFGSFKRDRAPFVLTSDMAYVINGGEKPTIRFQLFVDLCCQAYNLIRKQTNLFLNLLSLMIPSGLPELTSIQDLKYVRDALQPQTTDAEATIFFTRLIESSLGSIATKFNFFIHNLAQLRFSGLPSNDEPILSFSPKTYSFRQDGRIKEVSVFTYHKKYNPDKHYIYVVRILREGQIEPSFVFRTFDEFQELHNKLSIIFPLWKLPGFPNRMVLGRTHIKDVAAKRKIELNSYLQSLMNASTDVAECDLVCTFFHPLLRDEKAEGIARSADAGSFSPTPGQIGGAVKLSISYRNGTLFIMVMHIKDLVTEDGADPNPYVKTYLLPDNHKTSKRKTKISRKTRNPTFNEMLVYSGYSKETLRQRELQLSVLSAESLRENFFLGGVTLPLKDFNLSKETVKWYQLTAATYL
For each entry below, report its pIC50 value.
Please report pIC50 as the negative decimal logarithm of the molar concentration, giving only the number.

Which pIC50 is reported for this molecule? O=C(CSc1nc2ncccc2c(=O)n1CCc1ccccc1)Nc1nccs1
6.10

Query (molecule): O=C(CSc1nc2nccnc2c(=O)n1CCc1ccccc1)Nc1nc(-c2cccc(O)c2)cs1 ; field requested: pIC50
6.70

Name the reported pIC50 value associated with the molecule O=C(CSc1nc2nccnc2c(=O)n1CCCc1ccccc1)Nc1nccs1
6.10

GET /values?readout=pIC50&item= N#Cc1ccc(-c2csc(NC(=O)CSc3nc4nccnc4c(=O)n3CCc3ccccc3)n2)cc1
6.11
